All values here come from patent US10004732B2.

# assayedTarget: PI 3-kinase gamma (Homo sapiens)
# Sequence (P48736 whole entry): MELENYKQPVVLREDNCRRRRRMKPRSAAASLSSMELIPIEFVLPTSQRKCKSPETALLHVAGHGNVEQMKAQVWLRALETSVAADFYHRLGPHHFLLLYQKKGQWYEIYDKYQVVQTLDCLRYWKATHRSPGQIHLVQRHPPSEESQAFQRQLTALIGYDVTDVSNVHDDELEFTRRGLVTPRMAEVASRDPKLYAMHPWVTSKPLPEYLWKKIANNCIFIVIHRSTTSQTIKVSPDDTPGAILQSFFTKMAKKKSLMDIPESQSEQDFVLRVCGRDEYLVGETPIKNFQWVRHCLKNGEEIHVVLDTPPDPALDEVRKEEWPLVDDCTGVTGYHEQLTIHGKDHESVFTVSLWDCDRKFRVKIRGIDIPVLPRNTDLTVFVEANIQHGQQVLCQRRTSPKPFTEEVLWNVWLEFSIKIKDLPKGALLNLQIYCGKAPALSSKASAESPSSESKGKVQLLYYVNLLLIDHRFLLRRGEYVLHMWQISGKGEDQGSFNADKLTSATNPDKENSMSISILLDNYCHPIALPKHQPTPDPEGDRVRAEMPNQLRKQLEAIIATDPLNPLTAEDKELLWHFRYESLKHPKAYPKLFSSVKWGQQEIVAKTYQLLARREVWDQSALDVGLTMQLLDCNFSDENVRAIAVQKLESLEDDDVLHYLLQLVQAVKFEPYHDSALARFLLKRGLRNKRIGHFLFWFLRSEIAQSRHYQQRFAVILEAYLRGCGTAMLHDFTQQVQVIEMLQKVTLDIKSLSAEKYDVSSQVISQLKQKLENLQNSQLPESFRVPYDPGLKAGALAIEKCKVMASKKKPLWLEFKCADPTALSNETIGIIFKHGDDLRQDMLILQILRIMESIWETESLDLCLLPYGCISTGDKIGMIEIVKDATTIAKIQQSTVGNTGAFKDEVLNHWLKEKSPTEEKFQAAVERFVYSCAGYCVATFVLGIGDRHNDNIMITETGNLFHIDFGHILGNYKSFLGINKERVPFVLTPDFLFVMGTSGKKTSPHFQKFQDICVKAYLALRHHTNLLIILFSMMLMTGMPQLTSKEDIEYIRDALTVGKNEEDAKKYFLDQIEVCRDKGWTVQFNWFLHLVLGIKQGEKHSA
# assayText: Cellular U937 AKT assay K1 (MSD)
# Assay type: cell-based
# assayContext: U937 cells, K1 format; read-out: Assay K1 PI3Kγ IC50
endpointLabel: IC50 (µM)

molecule	IC50 (µM)
Cc1ccc(S(=O)(=O)NC2CC3(CC(O)C3)C2)cc1-c1cnc(N)c(-c2cn(C)nc2C)n1 (single isomer, unassigned) [Example 9a]	0.04

I. Cc1ccc(S(=O)(=O)NC[C@H]2C[C@@H](O)C2)cc1-c1cnc(N)c(-n2cncn2)n1 [Example 72]
II. Cc1ncc(-c2nc(-c3cc(S(=O)(=O)N4CCNC(C(F)(F)F)C4)ccc3C)cnc2N)s1 (stereo not shown) [Example 118]
III. Cc1ccc(S(=O)(=O)NC[C@H]2CCOC2)cc1-c1cnc(N)c(-c2cn(C)nc2C)n1 [Example 16]
Order field: IC50 | Direction: descending (largest first) Provide your answer as the labels ordered per the instruction.
I, II, III

----------
# assayedTarget: UniProt:Q8NEB9
# Sequence (Q8NEB9 whole entry, species assumed): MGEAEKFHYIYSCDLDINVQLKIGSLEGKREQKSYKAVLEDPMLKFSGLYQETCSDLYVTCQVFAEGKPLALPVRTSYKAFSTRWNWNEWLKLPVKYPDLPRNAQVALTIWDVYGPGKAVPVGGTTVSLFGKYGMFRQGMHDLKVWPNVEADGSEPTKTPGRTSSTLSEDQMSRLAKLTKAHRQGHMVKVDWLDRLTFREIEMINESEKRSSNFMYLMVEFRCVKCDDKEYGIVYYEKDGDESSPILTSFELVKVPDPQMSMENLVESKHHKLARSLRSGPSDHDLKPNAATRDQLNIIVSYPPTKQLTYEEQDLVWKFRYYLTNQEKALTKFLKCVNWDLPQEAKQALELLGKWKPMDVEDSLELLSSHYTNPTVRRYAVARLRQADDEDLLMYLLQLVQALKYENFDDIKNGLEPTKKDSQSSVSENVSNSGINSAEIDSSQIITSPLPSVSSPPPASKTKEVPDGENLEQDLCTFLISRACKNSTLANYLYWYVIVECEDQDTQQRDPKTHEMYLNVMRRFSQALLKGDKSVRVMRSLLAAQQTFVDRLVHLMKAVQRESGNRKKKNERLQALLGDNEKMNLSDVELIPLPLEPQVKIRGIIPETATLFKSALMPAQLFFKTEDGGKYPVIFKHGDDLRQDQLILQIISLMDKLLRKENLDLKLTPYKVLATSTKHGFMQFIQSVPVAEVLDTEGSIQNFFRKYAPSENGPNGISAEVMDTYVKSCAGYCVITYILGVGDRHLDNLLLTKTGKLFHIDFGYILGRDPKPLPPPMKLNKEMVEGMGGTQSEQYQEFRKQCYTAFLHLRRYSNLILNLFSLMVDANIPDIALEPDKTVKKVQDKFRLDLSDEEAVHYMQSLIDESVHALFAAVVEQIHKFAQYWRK
# assayText: Kinase Glo Luminescent Kinase Assay (Kglo), assay C
# Format: biochemical
# assayContext: read-out: Assay C VPS34 IC50
endpointLabel: IC50

molecule	IC50
Cc1ccc(S(=O)(=O)NCCCCCO)cc1-c1cnc(N)c(-n2cncn2)n1	> 10 µM
Cc1cc(-c2nc(-c3cc(S(=O)(=O)NCC4CCCO4)ccc3C)cnc2N)ccn1 (stereo not shown)	> 9.1 µM
Cc1ccc(S(=O)(=O)N2CCC(F)(F)CC2)cc1-c1cnc(N)c(-n2cncn2)n1	> 10 µM
CC(C)(O)CNS(=O)(=O)c1ccc(Cl)c(-c2cnc(N)c(-n3cncn3)n2)c1	> 9.1 µM
COc1cc(-c2nc(-c3cc(S(=O)(=O)NCCC(C)(C)O)ccc3C)cnc2N)ccn1	> 9.1 µM
COCCCNS(=O)(=O)c1ccc(C)c(-c2cnc(N)c(-c3ccnc(C)c3)n2)c1	> 9.1 µM

// returns reported IC50 for input `Cc1ccc(S(=O)(=O)NCC2(O)CC2)cc1-c1cnc(N)c(-n2cncn2)n1`
> 9.1 µM

Sample `Cc1ccc(S(=O)(=O)NC[C@@H](C)O)cc1-c1cnc(N)c(-n2cncn2)n1` — what was its IC50?
> 10 µM

Reported IC50, molecule `COc1ncccc1-c1nc(-c2cc(S(=O)(=O)NCCC(C)(C)O)ccc2C)cnc1N` : ____
> 9.1 µM

So what's the measured IC50 for this one? Cc1cc(-c2nc(-c3cc(S(=O)(=O)NCC4CCN(C)C4)ccc3C)cnc2N)ccn1 (stereo not shown)
> 9.1 µM

Quick one: IC50 of `Cc1ccc(S(=O)(=O)NCCC(C)(C)O)cc1-c1cnc(N)c(-c2cc(C3CC3)no2)n1` ?
> 9.55 µM

----------
# assayedTarget: PI 3-kinase beta (Homo sapiens)
# Sequence (P42338 whole entry): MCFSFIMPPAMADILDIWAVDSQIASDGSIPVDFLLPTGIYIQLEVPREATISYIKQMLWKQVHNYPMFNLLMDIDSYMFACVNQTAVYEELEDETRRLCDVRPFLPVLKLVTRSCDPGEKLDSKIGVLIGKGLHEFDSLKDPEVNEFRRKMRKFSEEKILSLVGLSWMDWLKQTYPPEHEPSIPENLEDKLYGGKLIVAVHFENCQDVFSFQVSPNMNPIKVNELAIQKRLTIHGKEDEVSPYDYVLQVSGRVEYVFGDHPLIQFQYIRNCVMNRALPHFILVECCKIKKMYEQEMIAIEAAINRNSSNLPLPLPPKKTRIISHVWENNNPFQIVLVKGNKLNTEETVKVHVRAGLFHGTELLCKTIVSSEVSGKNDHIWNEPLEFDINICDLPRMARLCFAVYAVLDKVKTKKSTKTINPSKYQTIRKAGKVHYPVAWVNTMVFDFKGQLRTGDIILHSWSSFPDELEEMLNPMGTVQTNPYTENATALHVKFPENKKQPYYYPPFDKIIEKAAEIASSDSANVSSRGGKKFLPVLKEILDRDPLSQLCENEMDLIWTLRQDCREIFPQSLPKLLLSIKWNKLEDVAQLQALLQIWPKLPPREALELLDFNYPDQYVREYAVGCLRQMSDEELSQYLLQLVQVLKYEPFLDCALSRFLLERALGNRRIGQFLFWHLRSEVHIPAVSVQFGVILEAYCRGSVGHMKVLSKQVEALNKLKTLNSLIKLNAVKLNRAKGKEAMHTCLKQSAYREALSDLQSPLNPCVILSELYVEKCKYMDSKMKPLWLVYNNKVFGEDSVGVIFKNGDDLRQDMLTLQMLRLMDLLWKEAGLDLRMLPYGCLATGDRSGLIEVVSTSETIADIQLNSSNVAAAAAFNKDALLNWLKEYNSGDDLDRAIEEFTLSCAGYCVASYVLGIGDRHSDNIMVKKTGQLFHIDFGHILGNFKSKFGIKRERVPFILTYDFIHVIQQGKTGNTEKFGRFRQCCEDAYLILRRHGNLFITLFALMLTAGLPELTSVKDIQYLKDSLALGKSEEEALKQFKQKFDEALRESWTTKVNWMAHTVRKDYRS
# Sequence (P27986 461-568 partner): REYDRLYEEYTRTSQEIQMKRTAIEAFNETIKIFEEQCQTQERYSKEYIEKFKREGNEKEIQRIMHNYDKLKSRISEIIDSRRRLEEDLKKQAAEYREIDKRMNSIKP
# assayText: Kinase Glo Luminescent Kinase Assay (Kglo), assay B
# Type: biochemical
# assayContext: read-out: Assay B PI3Kβ IC50
endpointLabel: IC50 (µM)

compound	IC50 / µM
Cc1ccc(S(=O)(=O)NC[C@@H]2CCC(C)(C)O2)cc1-c1cnc(N)c(-n2cncn2)n1 [Example 127.40]	1.5
Cc1ncn(-c2nc(-c3cc(S(=O)(=O)NCCC(C)(C)O)ccc3C)cnc2N)n1	4.03

1. Cc1ccc(S(=O)(=O)NCCC(C)(C)O)cc1-c1cnc(N)c(-c2cn[nH]c2)n1
2. CCc1noc(-c2nc(-c3cc(S(=O)(=O)N[C@H]4CC[C@H](O)CC4)ccc3C)cnc2N)n1
// returns 1 or 2 , whichever has the lower IC50 Pick one and reply with its label.
1
